- TARGET DESC: T1, human LILRB2 expressed on cells (293T-LILRB2, CHO-K1-LILRB2) (human, UniProt Q8N423 22-597)
- T1 construct: whole, on cells; the cell line is named under assay; also called HEK293T-LILRB2
- T1 sequence (Q8N423 22-597): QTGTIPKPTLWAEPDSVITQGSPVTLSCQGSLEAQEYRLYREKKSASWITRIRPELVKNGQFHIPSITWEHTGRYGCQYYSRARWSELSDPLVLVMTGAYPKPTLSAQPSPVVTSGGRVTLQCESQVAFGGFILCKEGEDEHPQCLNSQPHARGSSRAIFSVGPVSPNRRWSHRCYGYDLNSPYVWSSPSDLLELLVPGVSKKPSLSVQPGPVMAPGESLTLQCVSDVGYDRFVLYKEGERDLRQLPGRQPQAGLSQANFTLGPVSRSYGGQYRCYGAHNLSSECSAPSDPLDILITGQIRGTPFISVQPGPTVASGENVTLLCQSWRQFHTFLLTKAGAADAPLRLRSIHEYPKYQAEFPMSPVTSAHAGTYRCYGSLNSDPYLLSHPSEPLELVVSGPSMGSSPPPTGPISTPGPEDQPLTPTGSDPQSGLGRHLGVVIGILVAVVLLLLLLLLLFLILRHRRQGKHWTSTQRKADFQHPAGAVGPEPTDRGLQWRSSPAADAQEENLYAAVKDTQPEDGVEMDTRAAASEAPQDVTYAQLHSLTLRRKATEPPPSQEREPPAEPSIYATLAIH
- ASSAY EXPLANATION: flow cytometry, blockade of His-tagged HLA-G tetramer binding to 293T-LILRB2 cells; fit table under the graph
OUTCOME MEASURE: IC50 (pM)
// return numeric value only (unit: pM, not printed)

| BINDER | IC50, pM |
| --- | --- |
| Antibody h#2G6 (antibody, V domains shown, Humanized variant of 11B12) VH: EVQLVESGGGLVQPGGSLRLSCAVSGYSITSGYYWNWVRQAPGKGLEWVAYISYDGNNNYNPSLKNRFTISRDASKNTFYLQMNSLRAEDTAVYYCAREESTMITTAWFAYWGQGTLVTVSS VL: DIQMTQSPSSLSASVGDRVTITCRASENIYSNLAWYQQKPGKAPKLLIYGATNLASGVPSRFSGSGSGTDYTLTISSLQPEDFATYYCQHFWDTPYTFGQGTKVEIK | 391 |
| Antibody 2E1_GH6 (antibody, V domains shown) VH: EVQLVESGGGLVQPGGSLRLSCAVSGYSITSGYHWNWIRQAPGKGLEWVAYISYDGNNNYNPSLKNRFTISRDTSKNTFYLQMNSLRAEDTAVYYCAREESTMITTAWFAYWGQGTLVTVSS VL: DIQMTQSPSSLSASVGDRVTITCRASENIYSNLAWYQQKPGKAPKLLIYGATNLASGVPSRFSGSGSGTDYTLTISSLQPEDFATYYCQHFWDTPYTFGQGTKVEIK | 596 |

Query string: What value of IC50 has been reported for the following binder? Antibody h#2D4 (antibody, V domains shown, Humanized variant of 11B12) VH: EVQLVESGGGLVQPGGSLRLSCAVSGYSITSGYYWNWVRQAPGKGLEWVAYISYDGNNNYNPSLKNRFTISRDTSKNTFYLQMNSLRAEDTAVYYCVREESTMITTAWFAYWGQGTLVTVSS VL: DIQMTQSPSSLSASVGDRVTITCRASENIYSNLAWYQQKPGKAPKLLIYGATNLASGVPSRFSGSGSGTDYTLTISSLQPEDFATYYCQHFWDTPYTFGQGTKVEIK
Result string: 429
